Data credit: the NIST ThermoML archive (doi:10.1021/je101232g)

protocolConditions: 283.15 K; 15000 kPa; Liquid
± gives the expanded uncertainty stated by the source.

| molecule | mass density |
| --- | --- |
| CCCCCCCCCCCCCC[P+](CCCCCC)(CCCCCC)CCCCCC.CS(=O)(=O)[O-] [trihexyltetradecylphosphonium methanesulfonate] | 945.6 ± 0.9 kg/m3 |
| CCCCCCCCCCCCCC[P+](CCCCCC)(CCCCCC)CCCCCC.[Cl-] [trihexyl(tetradecyl)phosphonium chloride] | 905.3 ± 1.2 kg/m3 |
| CCCCCCCCCCCCCC[P+](CCCCCC)(CCCCCC)CCCCCC.[Br-] [tetradecyltrihexylphosphonium bromide] | 970.3 ± 0.7 kg/m3 |
| CCCCCCCCCCCCCC[P+](CCCCCC)(CCCCCC)CCCCCC.N#C[N-]C#N [tetradecyl(trihexyl)phosphonium dicyanamide] | 914.3 ± 1.1 kg/m3 |
| CCCCCCCCCCCCCC[P+](CCCCCC)(CCCCCC)CCCCCC.O=S(=O)([N-]S(=O)(=O)C(F)(F)F)C(F)(F)F | 1085.6 ± 1.2 kg/m3 |

---

protocolConditions: 283.15 K; 4000 kPa; Liquid

| compound | unitLabel | mass density |
| --- | --- | --- |
| CCCCCCCCCCCCCC[P+](CCCCCC)(CCCCCC)CCCCCC.[Br-] [tetradecyltrihexylphosphonium bromide] | kg/m3 | 964.8 |
| CCCCCCCCCCCCCC[P+](CCCCCC)(CCCCCC)CCCCCC.[Cl-] [trihexyl(tetradecyl)phosphonium chloride] | kg/m3 | 900.3 |
| CCCCCCCCCCCCCC[P+](CCCCCC)(CCCCCC)CCCCCC.O=S(=O)([N-]S(=O)(=O)C(F)(F)F)C(F)(F)F | kg/m3 | 1079.6 |
| CCCCCCCCCCCCCC[P+](CCCCCC)(CCCCCC)CCCCCC.CS(=O)(=O)[O-] [trihexyltetradecylphosphonium methanesulfonate] | kg/m3 | 940.1 |
| CCCCCCCCCCCCCC[P+](CCCCCC)(CCCCCC)CCCCCC.N#C[N-]C#N [tetradecyl(trihexyl)phosphonium dicyanamide] | kg/m3 | 909.3 |

---

protocolConditions: 333.15 K; 30000 kPa; Liquid

| compound | unitLabel | mass density |
| --- | --- | --- |
| CCCCCCCCCCCCCC[P+](CCCCCC)(CCCCCC)CCCCCC.[Cl-] [trihexyl(tetradecyl)phosphonium chloride] | kg/m3 | 884.9 |
| CCCCCCCCCCCCCC[P+](CCCCCC)(CCCCCC)CCCCCC.CS(=O)(=O)[O-] [trihexyltetradecylphosphonium methanesulfonate] | kg/m3 | 925 |
| CCCCCCCCCCCCCC[P+](CCCCCC)(CCCCCC)CCCCCC.O=S(=O)([N-]S(=O)(=O)C(F)(F)F)C(F)(F)F | kg/m3 | 1060.4 |
| CCCCCCCCCCCCCC[P+](CCCCCC)(CCCCCC)CCCCCC.N#C[N-]C#N [tetradecyl(trihexyl)phosphonium dicyanamide] | kg/m3 | 893.9 |
| CCCCCCCCCCCCCC[P+](CCCCCC)(CCCCCC)CCCCCC.[Br-] [tetradecyltrihexylphosphonium bromide] | kg/m3 | 949.6 |

---

protocolConditions: 303.15 K; 20000 kPa; Liquid

| compound | mass density, kg/m3 |
| --- | --- |
| CCCCCCCCCCCCCC[P+](CCCCCC)(CCCCCC)CCCCCC.O=S(=O)([N-]S(=O)(=O)C(F)(F)F)C(F)(F)F | 1074.7 |
| CCCCCCCCCCCCCC[P+](CCCCCC)(CCCCCC)CCCCCC.N#C[N-]C#N [tetradecyl(trihexyl)phosphonium dicyanamide] | 905.3 |
| CCCCCCCCCCCCCC[P+](CCCCCC)(CCCCCC)CCCCCC.CS(=O)(=O)[O-] [trihexyltetradecylphosphonium methanesulfonate] | 936.6 |
| CCCCCCCCCCCCCC[P+](CCCCCC)(CCCCCC)CCCCCC.[Cl-] [trihexyl(tetradecyl)phosphonium chloride] | 896.3 |
| CCCCCCCCCCCCCC[P+](CCCCCC)(CCCCCC)CCCCCC.[Br-] [tetradecyltrihexylphosphonium bromide] | 961.2 |
